The measured values listed here are drawn from PubChem BioAssay (NCI).

Test system: LOX IMVI melanoma
Protocol notes: NCI-60 one-dose screen, 48 h
Stated conditions: 10 µM unless noted
Procedure: Growth inhibition of the LOX IMVI human tumor cell line is measured as a screen for anti-cancer activity. Cells are grown in 96 well plates and exposed to the test compound for 48 hours. Compounds are tested at a single concentration, which is 10^-5 M for most compounds. The reported endpoint is percent growth (GI% or GIPRCNT), where numbers from 0 - 100% represent growth inhibition, and numbers from -100% - 0 represent cell death. For example, a value of 40 represents 60% growth inhibition. […]
The panel holds about 83,000 compounds, 20% with a hit somewhere; the sample as a whole holds those more often. The source made the active and inactive calls. How the source made its calls: active means growth percent below 10; inactive means the rest.
Return exactly one item of active, inactive

Here's what some known entries look like.
Compound	Label value
C(=C\c1nccc2c1[nH]c1ccccc12)/c1ccccc1	inactive
COc1ccc(S(=O)(=O)N2CCN(C)CC2)cc1NC(=O)c1[nH]c(C)c2c1CCCCC2=O	inactive
COc1cccc(-c2nc(SCC(=O)Nc3ccc(C(=O)/C=C/c4ccc(OC)c(OC)c4)cc3)[nH]c(=O)c2C#N)c1	inactive
COc1cccc(/C=C2\Oc3cc(OCCN4CCCC4)ccc3C2=O)c1	inactive
CC(=O)NCC1c2c(n(C)c3c(Cl)c(Cl)ccc23)C(=O)NC1(C)C (stereo not drawn)	inactive

Proceed to the following item.
Task: Look up the recorded call for CC(=O)O[C@H]1[C@@H]2OC(=O)C(CSc3ccccc3)[C@@H]2C[C@H]2O[C@]2(C)CC/C=C(\C)CCC[C@@H]1C (stereo partly drawn) in this test.
Output: inactive
